Consider the following binders; for each one, report its ELISA data.
Target: T1, CD81 (UniProt P60033 1-236, limits assumed)
T1 construct: whole, on cells; also called CD81 receptor
T1 sequence (looked up): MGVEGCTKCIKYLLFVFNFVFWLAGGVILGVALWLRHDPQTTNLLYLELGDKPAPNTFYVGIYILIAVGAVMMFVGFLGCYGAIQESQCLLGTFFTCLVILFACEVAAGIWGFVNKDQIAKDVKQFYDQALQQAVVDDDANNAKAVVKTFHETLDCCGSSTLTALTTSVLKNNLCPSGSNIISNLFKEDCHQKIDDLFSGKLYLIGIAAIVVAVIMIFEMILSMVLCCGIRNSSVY
Assay: cell ELISA;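 also: antibody binding to HuH7 cells expressing CD81 versus a CD81-negative HuH7 control line, bound antibody detected by secondary reagent, absorbance at 450 nm with 620 nm reference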
Answers are plain numbers.

CD81K04 HC JA_GG-14-hVH_1_69 / LC JA_GG-08-hVK_4_1 (antibody, V domains shown, human constant region) VH: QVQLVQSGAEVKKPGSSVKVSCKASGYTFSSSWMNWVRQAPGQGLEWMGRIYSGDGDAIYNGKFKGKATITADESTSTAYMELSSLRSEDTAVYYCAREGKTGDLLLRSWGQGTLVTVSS VL: DIVMTQSPDSLAVSLGERATINCKSSKSVSTSIYSYMHWYQQKPGQPPKLLIKYASYLESGVPDRFSGSGSGTDFTLTISSLQAEDVAVYYCEHSREFPFTFGQGTKLEIK = 0.835

Record ELISA data for all entries; do not skip any.
1. CD81K04 HC GG-01-hVH_5_51 / LC GG-02-hVK_4_1 (antibody, V domains shown, human constant region) VH: EVQLVQSGAEVKKPGESLKISCKGSGYSFSSSWMNWVRQMPGKGLEWMGRIYSGDGDAIYSPSFQGQVTISADKSISTAYLQLSSLKASDTAMYYCAREGKTGDLLLRSWGQGTLVTVSS VL: DIVMTQSPDSLAVSLGERATINCKSSKSVSTSIYSYMHWYQQKPGQPPKLLIYYASYRESGVPDRFSGSGSGTDFTLTISSLQAEDVAVYYCQHSREFPFTFGQGTKLEIK
2. CD81K04 HC GG-03-hVH_1_69 / LC JA_GG-10-hVK_4_1 (antibody, V domains shown, human constant region) VH: QVQLVQSGAEVKKPGSSVKVSCKASGYTFSSSWMNWVRQAPGQGLEWMGRIYSGDGDAIYAQKFQGRVTITADESTSTAYMELSSLRSEDTAVYYCAREGKTGDLLLRSWGQGTLVTVSS VL: DIVMTQSPDSLAVSLGERATINCRASKSVSTSIYSYMHWYQQKPGQPPKLLIKYASYLESGVPDRFSGSGSGTDFTLTISSLQAEDVAVYYCEHSREFPFTFGQGTKLEIK
3. CD81K04 HC JA_GG-15-hVH_1_3 / LC JA_GG-08-hVK_4_1 (antibody, V domains shown, human constant region) VH: QVQLVQSGAEVKKPGASVKVSCKASGYTFSSSWMNWVRQAPGQRLEWMGRIYSGDGDAIYNGKFKGRVTITADTSASTAYMELSSLRSEDTAVYYCAREGKTGDLLLRSWGQGTLVTVSS VL: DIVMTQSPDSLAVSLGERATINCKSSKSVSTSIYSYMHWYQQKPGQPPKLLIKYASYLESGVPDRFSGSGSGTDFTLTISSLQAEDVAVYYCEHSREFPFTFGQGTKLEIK
4. CD81K04 HC GG-01-hVH_5_51 / LC JA_GG-09-hVK_4_1 (antibody, V domains shown, human constant region) VH: EVQLVQSGAEVKKPGESLKISCKGSGYSFSSSWMNWVRQMPGKGLEWMGRIYSGDGDAIYSPSFQGQVTISADKSISTAYLQLSSLKASDTAMYYCAREGKTGDLLLRSWGQGTLVTVSS VL: DIVMTQSPDSLAVSLGERATINCKSSKSVSTSIYSYMHWYQQKPGQPPKLLIKYASTRESGVPDRFSGSGSGTDFTLTISSLQAEDVAVYYCEHSREFPFTFGQGTKLEIK

1: 0.081; 2: 0.691; 3: 0.993; 4: 0.148

Record ELISA data for all entries; do not skip any.
1. CD81K04 HC JA_GG-14-hVH_1_69 / LC JA_GG-10-hVK_4_1 (antibody, V domains shown, human constant region) VH: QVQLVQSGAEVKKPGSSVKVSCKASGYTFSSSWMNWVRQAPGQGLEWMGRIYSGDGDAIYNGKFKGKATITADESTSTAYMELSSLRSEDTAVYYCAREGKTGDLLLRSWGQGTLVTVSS VL: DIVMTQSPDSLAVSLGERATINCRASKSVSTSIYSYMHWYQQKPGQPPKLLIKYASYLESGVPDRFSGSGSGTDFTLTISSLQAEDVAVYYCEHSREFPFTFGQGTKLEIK
2. CD81K04 HC JA_GG-14-hVH_1_69-GA / LC CD81K04 (antibody, V domains shown, human constant region) VH: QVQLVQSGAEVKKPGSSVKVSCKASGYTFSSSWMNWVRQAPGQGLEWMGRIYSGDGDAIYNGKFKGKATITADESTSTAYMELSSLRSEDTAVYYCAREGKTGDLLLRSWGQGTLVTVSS VL: DIVLTQSPASLSVSLGQRATISCRASKSVSTSIYSYMHWYQQKPGQPPKLLIKYASYLESGVPARFSGSGSGTDFTLNIHPVEEEDAATYYCEHSREFPFTFGTGTKLEIK
3. CD81K04 HC JA_GG-16-hVH_1_3 / LC JA_GG-07-hVK_7_3 (antibody, V domains shown, human constant region) VH: QVQLVQSGAEVKKPGASVKVSCKASGYTFSSSWMNWVRQAPGQGLEWMGRIYSGDGDAIYNGKFKGRVTITADTSASTAYMELSSLRSEDTAVYYCAREGKTGDLLLRSWGQGTLVTVSS VL: DIVLTQSPASLAVSPGQRATITCRASKSVSTSIYSYMHWYQQKPGQPPKLLIKYASNKDTGVPARFSGSGSGTDFTLTINPVEANDAANYYCLHSREFPYTFGQGTKLEIK
4. CD81K04 HC K04_JA_GG-17-hVH_1_3 / LC GG-02-hVK_4_1 (antibody, V domains shown, human constant region) VH: QVQLVQSGAEVKKPGASVKVSCKASGYTFSSSWMNWVRQAPGQRLEWMGRIYSGDGDTIYSQKFQGRVTITADTSASTAYMELSSLRSEDTAVYYCAREGKTGDLLLRSWGQGTLVTVSS VL: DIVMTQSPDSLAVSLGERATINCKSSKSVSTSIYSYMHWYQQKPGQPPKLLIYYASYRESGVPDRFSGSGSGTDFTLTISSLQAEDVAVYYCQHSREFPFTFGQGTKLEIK

1: 0.77; 2: 0.877; 3: 0.161; 4: 0.709

The measured ELISA data associated with CD81K04 HC K04_JA-13-hVH_1_3 / LC JA_GG-10-hVK_4_1 (antibody, V domains shown, human constant region) VH: QVQLVQSGAEVKKPGASVKVSCKASGYTFSSSWMNWVRQAPGQRLEWMGRIYSGDGDAIYNGKFKGRVTITRDTSASTAYMELSSLRSEDTAVYYCAREGKTGDLLLRSWGQGTLVTVSS VL: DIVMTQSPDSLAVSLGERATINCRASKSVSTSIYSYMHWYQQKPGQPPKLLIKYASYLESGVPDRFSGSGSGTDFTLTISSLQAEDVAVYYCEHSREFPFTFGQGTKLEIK reads 0.861
